# Tested on: CtBP / adenovirus E1A interaction (AlphaScreen)
# method-description: qHTS Assay for Inhibitors of the CtBP/E1A Interaction
# measurement-parameters: AlphaScreen GST-E1A/His-CtBP binding, 1536-well
About 1,700 (0.5%) of roughly 340,000 compounds were called active. Not shown: some 2% with an inconclusive outcome. No stated cut-off is given here; in the data, active means activity change below about -65%; inconclusive means mostly about -30% to -63%; inactive means weaker than that. The sample as a whole holds a higher share of actives than the screen did.
Classes used: true for active, false for inactive

>>> label("Cc1cccc(-n2c(O)c(/C=N/N3CCOCC3)c(=O)[nH]c2=S)c1")
"false"
>>> label("COc1ccc(CCn2c(O)c(C=NC3CC3)c(=O)[nH]c2=O)cc1OC")
"false"
>>> label("CCC(C)n1c(O)c(/C=N/Nc2nc3c(c(=O)n(C)c(=O)n3C)n2C)c(=O)[nH]c1=S (stereo unspecified)")
"true"
>>> label("O=c1[nH]c(=O)n(Cc2ccccc2)c(O)c1/C=N/Nc1c(F)c(F)c(F)c(F)c1F")
"false"
>>> label("CCCCC(=O)N/N=C/c1c(O)n(CCC2=CCCCC2)c(=O)[nH]c1=O")
"true"
>>> label("COC(=O)CN(CCCl)P1(=O)OCCCN1CCCl (stereo unspecified)")
"false"
